Measured CC50 at 144 h accompanies every entry in the list below.
Assay: Cytotoxicity against human MRC5 cells assessed as reduction in cell viability measured after 6 days by cell-titer glo assay
Type: toxicity, cell-based
Conditions: time 6 day

{"MOLECULE": "CNC(=O)[C@H]1Cc2cccc(c2)OC/C=C/c2cccc3c2CC(CC(=O)N1C)N3C(=O)c1cncc2cccnc12 (stereo partly drawn)", "RELATIONAL_OPERATOR": "=", "CC50 at 144 h / µM": 46}
{"MOLECULE": "O=C1C[C@H]2Cc3ccccc3N2C(=O)c2cncc(c2)/C=C/CCCCCOC(=O)[C@@H](Cc2ccc(Cl)cc2)N1", "RELATIONAL_OPERATOR": "=", "CC50 at 144 h / µM": 47}
{"MOLECULE": "CN1C(=O)C[C@H]2CC3(CC3)CN2C(=O)c2cncc(c2)NCCCCCCNC(=O)[C@H]1Cc1ccc(Cl)cc1Cl", "RELATIONAL_OPERATOR": "=", "CC50 at 144 h / µM": 45}
{"MOLECULE": "CN1C(=O)C[C@H]2CC3(CC3)CN2C(=O)c2cncc(c2)NCCC/C=C/CNC(=O)[C@H]1Cc1ccc(Cl)cc1Cl", "RELATIONAL_OPERATOR": ">", "CC50 at 144 h / µM": 50}
{"MOLECULE": "CNC[C@@H](Cc1ccc(Cl)cc1)N(C)C(=O)C[C@H]1Cc2ccccc2N1C(=O)c1cncc2ccccc12", "RELATIONAL_OPERATOR": "=", "CC50 at 144 h / µM": 33}
{"MOLECULE": "CC(C)(C)[C@H](NC(=O)C(F)(F)F)C(=O)N1C[C@H]2[C@@H]([C@H]1C(=O)N[C@H](C#N)C[C@@H]1CCNC1=O)C2(C)C", "RELATIONAL_OPERATOR": ">", "CC50 at 144 h / µM": 50}
{"MOLECULE": "CNC[C@@H](Cc1ccc(Cl)cc1)N(C)C(=O)C[C@H]1CCCN1C(=O)c1cncc2ccccc12", "RELATIONAL_OPERATOR": ">", "CC50 at 144 h / µM": 50}
{"MOLECULE": "CNC(=O)[C@@H](Cc1ccc(Cl)cc1)N1CCCCCC/C=C/c2cncc(c2)C(=O)N2c3ccccc3C[C@@H]2CC1=O", "RELATIONAL_OPERATOR": "=", "CC50 at 144 h / µM": 9.1}

These entries and their values trace back to ChEMBL document CHEMBL6092207.
